# EXPERIMENT SUMMARY: physchem
# DETAILS: pH 7.4
Starred links: 1 amine or outer side, 2 acyl side, 3 side chain; linkers in the order of their positions; H or OH if unused. Non-standard residues stand in square brackets, D forms with d. Residues, ends and D or L forms follow the SMILES beside them. X13 = CC[C@H](C)[C@H](NC(=S)[C@@H]1CCCN1[*:1])C(=O)[*:2]; X2 = CC(C)C[C@H](NC(=S)[C@@H](CC(C)C)N[*:1])C(=O)[*:2]; X5 = CC(C)C[C@H](NC(=S)[C@H](CC(C)C)N[*:1])C(=O)[*:2]; NMeY = CN[C@@H](Cc1ccc(O)cc1)C(=O)O; NMeL = CN[C@@H](CC(C)C)C(=O)O
OUTCOME MEASURE: logD

Past entries and their recorded results:
{"COMPOUND": "CC(C)C[C@@H]1NC(=O)[C@H](Cc2ccc(O)cc2)NC(=O)[C@H]2CCCN2C(=O)[C@H](CC(C)C)NC(=S)[C@H](CC(C)C)NC(=O)[C@@H](CC(C)C)NC1=O [10b] (cyclo(L[dL][X5][dP]Y))", "logD": 1.42}
{"COMPOUND": "CC(C)C[C@@H]1NC(=O)[C@@H](CC(C)C)NC(=O)[C@H](CC(C)C)NC(=O)[C@H](Cc2ccc(O)cc2)N(C)C(=O)[C@H]2CCCN2C(=O)[C@H](CC(C)C)NC1=O [10j] (cyclo(LL[dP][NMeY]L[dL]))", "logD": 0.98}
{"COMPOUND": "CN(C(=O)[C@@H](N)Cc1ccccc1)[C@@H](Cc1c[nH]c2ccccc12)C(=O)O [7b]", "logD": 0.21}
{"COMPOUND": "CC[C@H](C)[C@@H]1NC(=O)[C@@H]2CCCN2C(=O)[C@H]([C@@H](C)CC)NC(=S)[C@@H]2CCCN2C(=O)[C@H](Cc2ccccc2)NC(=O)[C@H](C)NC(=O)[C@H](C)NC1=O [11e] (cyclo(AAF[X13]PI))", "logD": 0.58}
{"COMPOUND": "CC(C)C[C@@H]1NC(=O)[C@@H]2CCCN2C(=O)[C@@H](C)NC(=O)[C@H](CC(C)C)NC(=S)[C@@H](CC(C)C)NC(=O)[C@H]2CCCN2C(=O)[C@H](CC(C)C)NC(=O)[C@@H](CC(C)C)NC1=O [12d] (cyclo(L[dL]L[dP][X2][dA]P))", "logD": 1.82}

P = CC(C)C[C@@H]1NC(=O)[C@H](Cc2ccc(O)cc2)NC(=O)[C@H]2CCCN2C(=O)[C@H](CC(C)C)NC(=O)[C@H](CC(C)C)N(C)C(=O)[C@@H](CC(C)C)NC1=O [10h] (cyclo(L[dL][NMeL]L[dP]Y))
Q = CC[C@H](C)[C@@H]1NC(=S)[C@@H]2CCCN2C(=O)[C@H]([C@@H](C)CC)NC(=O)[C@@H]2CCCN2C(=O)[C@H](Cc2ccccc2)NC(=O)[C@H](C)NC(=O)[C@H](C)NC1=O [11g] (cyclo(AAFPI[X13]))
R = CC(C)C[C@@H]1NC(=O)[C@@H](CC(C)C)NC(=O)[C@H]2CCCN2C(=O)[C@H](CC(C)C)NC(=O)[C@@H](CC(C)C)NC(=O)[C@H](CC(C)C)NC(=O)[C@@H]2CCCN2C(=O)[C@@H](C)NC1=O [compound 12] (cyclo(L[dA]PL[dL]L[dP][dL]))
S = CC(C)[C@@H](C(=O)O)N(C)C(=O)[C@@H](N)Cc1ccccc1 [5b]
T = N[C@@H](Cc1ccccc1)C(=S)N[C@@H](Cc1c[nH]c2ccccc12)C(=O)O [7a]
// query Rank the items in ascending order with respect to logD. Record the ranking as a list of labels in the requested order.
// result S, T, Q, R, P

---

# EXPERIMENT SUMMARY: in vitro
# DETAILS: both, human, plasma
Starred links: 1 amine or outer side, 2 acyl side, 3 side chain; linkers in the order of their positions; H or OH if unused. Non-standard residues stand in square brackets, D forms with d. Residues, ends and D or L forms follow the SMILES beside them. X10 = NCCCC[C@H](NC(=S)[C@@H](Cc1c[nH]c2ccccc12)N[*:1])C(=O)[*:2]; X12 = C[C@@H](O)[C@H](N[*:1])C(=S)N[C@@H](Cc1ccccc1)C(=O)[*:2]; X1 = CC(C)C[C@H](NC(=S)[C@H](Cc1ccc(O)cc1)N[*:1])C(=O)[*:2]; X6 = O=C([C@H](Cc1ccc(O)cc1)NC(=S)[C@H]1CCCN1[*:1])[*:2]; X7 = C[C@@H](O)[C@H](NC(=S)[C@H](CCCCN)N[*:1])C(=O)[*:2]; X8 = O=C([C@H](Cc1ccccc1)NC(=S)[C@@H]1CCCN1[*:1])[*:2]; X9 = O=C([C@@H]1CCCN1C(=S)[C@H](Cc1ccccc1)N[*:1])[*:2]; X3 = CC(C)C[C@H](N[*:1])C(=S)N[C@H](CC(C)C)C(=O)[*:2]; X5 = CC(C)C[C@H](NC(=S)[C@H](CC(C)C)N[*:1])C(=O)[*:2]; X4 = CC(C)C[C@H](N[*:1])C(=S)N1CCC[C@@H]1C(=O)[*:2]; NMeY = CN[C@@H](Cc1ccc(O)cc1)C(=O)O; NMeL = CN[C@@H](CC(C)C)C(=O)O; dNMeL = CN[C@H](CC(C)C)C(=O)O
OUTCOME MEASURE: fraction unbound

{"COMPOUND": "C[C@@H](O)[C@@H]1NC(=S)[C@H](CCCCN)NC(=O)[C@@H](Cc2c[nH]c3ccccc23)NC(=O)[C@H](Cc2ccccc2)NC(=O)[C@@H]2CCCN2C(=O)[C@H](Cc2ccccc2)NC1=O [13b] (cyclo(FPF[dW][X7]))", "fraction unbound": 0.14}

P = C[C@@H](O)[C@@H]1NC(=O)[C@H](CCCCN)NC(=O)[C@@H](Cc2c[nH]c3ccccc23)NC(=O)[C@H](Cc2ccccc2)NC(=S)[C@@H]2CCCN2C(=O)[C@H](Cc2ccccc2)NC1=O [13e] (cyclo(F[X8][dW]KT))
Q = CC(C)C[C@@H]1NC(=O)[C@H](Cc2ccc(O)cc2)NC(=O)[C@H]2CCCN2C(=O)[C@H](CC(C)C)NC(=O)[C@H](CC(C)C)NC(=O)[C@@H](CC(C)C)NC1=O [compound 10, cyclo(-D-Leu^1-Leu-Leu-D-Pro-Tyr-Leu^6-)] (cyclo(LL[dP]YL[dL]))
R = C[C@@H](O)[C@@H]1NC(=O)[C@H](CCCCN)NC(=O)[C@@H](Cc2c[nH]c3ccccc23)NC(=S)[C@H](Cc2ccccc2)NC(=O)[C@@H]2CCCN2C(=O)[C@H](Cc2ccccc2)NC1=O [13f]
S = CC(C)C[C@@H]1NC(=O)[C@H](Cc2ccc(O)cc2)NC(=S)[C@H]2CCCN2C(=O)[C@H](CC(C)C)NC(=O)[C@H](CC(C)C)NC(=O)[C@@H](CC(C)C)NC1=O [10d] (cyclo(LL[X6]L[dL]))
T = CC(C)C[C@@H]1NC(=O)[C@@H](CC(C)C)NC(=S)[C@H](CC(C)C)NC(=O)[C@H](Cc2ccc(O)cc2)NC(=O)[C@H]2CCCN2C(=O)[C@H](CC(C)C)NC1=O [10f] (cyclo(LL[dP]Y[X3]))
// query Put the entries in order of fraction unbound, starting with the largest number. Record the ranking as a list of labels in the requested order.
// result Q, P, R, S, T
(Q: 0.51, P: 0.09, R: 0.05, S: 0.03, T: 0.02)

P = C[C@@H](O)[C@@H]1NC(=O)[C@H](CCCCN)NC(=O)[C@@H](Cc2c[nH]c3ccccc23)NC(=O)[C@H](Cc2ccccc2)NC(=O)[C@@H]2CCCN2C(=S)[C@H](Cc2ccccc2)NC1=O [13d] (cyclo(F[dW]KT[X9]))
Q = CC(C)C[C@@H]1NC(=O)[C@@H](CC(C)C)NC(=O)[C@H](CC(C)C)NC(=S)[C@H](Cc2ccc(O)cc2)NC(=O)[C@H]2CCCN2C(=O)[C@H](CC(C)C)NC1=O [10e] (cyclo(LL[dP][X1][dL]))
R = CC(C)C[C@@H]1NC(=O)[C@H](Cc2ccc(O)cc2)NC(=O)[C@H]2CCCN2C(=S)[C@H](CC(C)C)NC(=O)[C@H](CC(C)C)NC(=O)[C@@H](CC(C)C)NC1=O [10c] (cyclo(L[dL]L[X4]Y))
// query Put the entries in order of fraction unbound, starting with the largest number. Record the ranking as a list of labels in the requested order.
// result R, P, Q
(R: 0.24, P: 0.11, Q: 0.01)

1 = C[C@@H](O)[C@@H]1NC(=O)[C@H](CCCCN)NC(=S)[C@@H](Cc2c[nH]c3ccccc23)NC(=O)[C@H](Cc2ccccc2)NC(=O)[C@@H]2CCCN2C(=O)[C@H](Cc2ccccc2)NC1=O [13a] (cyclo(FPF[X10]T))
2 = CC(C)C[C@@H]1NC(=O)[C@H](Cc2ccc(O)cc2)NC(=O)[C@H]2CCCN2C(=O)[C@H](CC(C)C)NC(=S)[C@H](CC(C)C)NC(=O)[C@@H](CC(C)C)NC1=O [10b] (cyclo(L[dL][X5][dP]Y))
// query Select one. Lower fraction unbound: 1 or 2 Output the label that corresponds to your choice.
// result 1

a = C[C@@H](O)[C@@H]1NC(=O)[C@H](CCCCN)NC(=O)[C@@H](Cc2c[nH]c3ccccc23)NC(=O)[C@H](Cc2ccccc2)NC(=O)[C@@H]2CCCN2C(=O)[C@H](Cc2ccccc2)NC1=S [13c] (cyclo(F[dW]K[X12]P))
b = CC(C)C[C@@H]1NC(=O)[C@@H](CC(C)C)N(C)C(=O)[C@H](CC(C)C)NC(=O)[C@H](Cc2ccc(O)cc2)NC(=O)[C@H]2CCCN2C(=O)[C@H](CC(C)C)NC1=O [10g] (cyclo(LL[dP]YL[dNMeL]))
c = CC(C)C[C@@H]1NC(=O)[C@@H](CC(C)C)NC(=O)[C@H](CC(C)C)N(C)C(=O)[C@H](Cc2ccc(O)cc2)NC(=O)[C@H]2CCCN2C(=O)[C@H](CC(C)C)NC1=O [10k] (cyclo(LL[dP]Y[NMeL][dL]))
// query Rank the items in ascending order with respect to fraction unbound. Record the ranking as a list of labels in the requested order.
// result a, b, c

1 = CC(C)C[C@@H]1NC(=O)[C@@H](CC(C)C)NC(=O)[C@H](CC(C)C)NC(=O)[C@H](Cc2ccc(O)cc2)N(C)C(=O)[C@H]2CCCN2C(=O)[C@H](CC(C)C)NC1=O [10j] (cyclo(LL[dP][NMeY]L[dL]))
2 = CC(C)C[C@@H]1NC(=O)[C@H](Cc2ccc(O)cc2)NC(=O)[C@H]2CCCN2C(=O)[C@H](CC(C)C)NC(=O)[C@H](CC(C)C)N(C)C(=O)[C@@H](CC(C)C)NC1=O [10h] (cyclo(L[dL][NMeL]L[dP]Y))
// query Quick check, higher fraction unbound between 1 and 2 ? Output the label that corresponds to your choice.
// result 2
(2: 0.3, 1: 0.21)
